Quick reference: pIC50 of the listed items.
tested on: HeLa; assay: Cytotoxicity against human HeLa cells assessed as inhibition of cell proliferation after 48 hrs by MTT assay; assay type: functional, cell-based
pIC50: −log10 of the molar value.
QUANTITY KIND: pIC50

>>> print(df.to_string())
                                   molecule  quantity_kind  readout_qualifier  experimental_value
0  CC1(C)CCC[C@](C)([C@H]2CC[C@]3(C)[C@@H]2[C@H](O)C[C@@H]2[C@@]4(C)CC/C(=N\O)C(C)(C)[C@@H]4CC[C@]23C)O1          pIC50                  <                4.00
1  CC(C)(O)CCC[C@@](C)(O)[C@H]1CC[C@]2(C)[C@@H]1C(=O)C[C@@H]1[C@@]3(C)Cc4nccnc4C(C)(C)[C@@H]3CC[C@]12C          pIC50                  <                4.00
2  CC(C)(O)CCC[C@@](C)(O)[C@H]1CC[C@]2(C)[C@@H]1[C@H](O)C[C@@H]1[C@@]3(C)C=C(O)C(=O)C(C)(C)[C@@H]3CC[C@]12C          pIC50                  =                4.29
3    O=c1[nH]cc(F)c(=O)[nH]1 [FLUOROURACIL]          pIC50                  =                4.55
4  COC(C)(C)CCC[C@@](C)(O)[C@H]1CC[C@]2(C)[C@@H]1C(=O)C[C@@H]1[C@@]3(C)CCC(=O)C(C)(C)[C@@H]3CC[C@]12C          pIC50                  <                4.00
5  COC(C)(C)CCC[C@@](C)(O)[C@H]1CC[C@]2(C)[C@@H]1[C@H](O)C[C@@H]1[C@@]3(C)C=C(O)C(=O)C(C)(C)[C@@H]3CC[C@]12C          pIC50                  =                4.41

###

Catalogue of compounds with associated pIC50
system: HeLa; experiment: Cytotoxicity against human HeLa cells assessed as inhibition of cell proliferation after 48 hrs by MTT assay; format: functional, cell-based
pIC50: −log10 of the molar value.
QUANTITY KIND: pIC50

In [3]: df
Out[3]:
                                chem_smiles  experimental_value
0  CC1(C)CCC[C@](C)([C@H]2CC[C@]3(C)[C@@H]2[C@H](O)C[C@@H]2[C@@]4(C)Cc5nccnc5C(C)(C)[C@@H]4CC[C@]23C)O1              < 4.00
1  COC(C)(C)CCC[C@@](C)(O)[C@H]1CC[C@]2(C)[C@@H]1[C@H](O)C[C@@H]1[C@@]3(C)CCC(=O)C(C)(C)[C@@H]3CC[C@]12C              < 4.00
2  CC(C)(O)CCC[C@@](C)(O)[C@H]1CC[C@]2(C)[C@@H]1[C@H](O)C[C@@H]1[C@@]3(C)Cc4nccnc4C(C)(C)[C@@H]3CC[C@]12C              < 4.00
3  CC1(C)CCC[C@](C)([C@H]2CC[C@]3(C)[C@@H]2[C@H](O)C[C@@H]2[C@@]4(C)CC[C@H](O)C(C)(C)[C@@H]4CC[C@]23C)O1              < 4.00
4  CC1(C)CCC[C@](C)([C@H]2CC[C@]3(C)[C@@H]2[C@H](O)C[C@@H]2[C@@]4(C)C=C(O)C(=O)C(C)(C)[C@@H]4CC[C@]23C)O1                4.60
